# ASSAY REMARKS: Pharmacokinetics: plasma levels after topical RB cream
# Type: in vivo, SKH1-Hrhr hairless mice
# APPLIED CONDITIONS: SKH1-Hrhr hairless, mouse, plasma, topical, 1 mg, 6 h post-dose; 3 mice; read-out: MEAN ng/ml RB (plasma)
VALUE KIND: concentration at 6 h (ng/mL)
Output spec: scalar in ng/mL, unitless text.

Data request: Annotate the compound C=CC[N+]1([C@H]2C[C@H]3[C@@H]4CC[C@H]5C[C@H](O)[C@@H](N6CCOCC6)C[C@]5(C)[C@H]4CC[C@]3(C)[C@H]2OC(C)=O)CCCC1 [rocuronium bromide] with its measured concentration at 6 h.
Data returned: 5
